The values you see were collected from patent EP1903056A2.

molecular target: HLA-B*4403 (human); experiment: competitive inhibition binding assay, purified HLA; settings: remark: other sources report otherwise
pIC50: −log10 of the molar value.
METRIC: pIC50

* VELVHFLL [MAGE2-derived B44 peptide VELVHFLL, position 114] | 8.92
